- Test system: HCC-2998 colon
- experiment: NCI-60 one-dose screen, 48 h
- conditions: 10 µM unless noted
About 83,000 compounds went through this panel and 20% of them were active in at least one assay; those are over-represented in the sample as a whole. Activity calls are given as the source filed them. How the source made its calls: active means growth percent below 10; inactive means the rest.
Possible outcomes: true for active, false for inactive

• COc1cc(-c2cc(-c3ccc(Nc4ncnc5cc(Cl)ccc45)cc3)nc(N3CCCCC3)n2)cc(OC)c1OC = false
• CC1(C)CC[C@]2(C(N)=O)CC[C@]3(C)C(=CC[C@@H]4[C@@]5(C)C/C(=C/c6ccncc6)C(=O)C(C)(C)[C@@H]5CC[C@]43C)[C@@H]2C1 = true
• CCCCCCCCCCCCNC(=S)N/N=C/c1ccccc1O = false
• NS(=O)(=O)c1ccc(CCN2C(=O)/C(=C\c3ccccc3)C=C2c2ccc(Cl)cc2)cc1 = false
• COCc1nc2ccccc2[nH]1 = false
• CCN(CCNc1ccc(C)c2sc3cc(Cl)ccc3c(=O)c12)CC(C)O (centres undefined) = true
• CC(C)[N+](C)(C)CC(O)COc1cccc2ccccc12 (centres undefined) = false
• CCOC(=O)C(=Cc1ccccc1[N+](=O)[O-])C(=O)OCC = false
• CN(C)c1cc(NN=C(c2ccc(O)cc2)c2ccc(O)cc2)c([N+](=O)[O-])cc1[N+](=O)[O-] = false

This collection of values is drawn from PubChem BioAssay (NCI).
